Data origin: ChEMBL document CHEMBL5113489

- test: Cytotoxicity against human HepG2 cells assessed as cell viability at 4 ug/ml measured by SRB assay
- Format: toxicity, cell-based
- reported conditions: at 4 µg/mL, read-out: Activity
quantity: viability at 4 ug/ml (%)
Numeric answer only, unit % assumed.

-- ask Request the reported viability at 4 ug/ml associated with C=CCc1ccc(OCCC[N+](C)(C)CCCCCC)c(-c2ccc(OCCC[N+](C)(C)CCCCCC)c(CC=C)c2)c1.[Br-].[Br-]
-- reply 94.7

###

- System: Staphylococcus aureus
- test: Antibacterial activity against Staphylococcus aureus ATCC 31007
- Type: functional
quantity: MIC (µg/mL)
Numeric answer only, unit µg/mL assumed.

-- ask Request the reported MIC associated with C=CCc1ccc(OCC(=O)NCCC[N+](C)(C)CCCCCCCCCC)c(-c2ccc(OCC(=O)NCCC[N+](C)(C)CCCCCCCCCC)c(CC=C)c2)c1.[Br-].[Br-]
-- reply 4
